Target: T1, K243D E. coli DegS (residues 27-355) (E. coli, UniProt P0AEE3 27-355, K243D)
T1 sequence (looked up): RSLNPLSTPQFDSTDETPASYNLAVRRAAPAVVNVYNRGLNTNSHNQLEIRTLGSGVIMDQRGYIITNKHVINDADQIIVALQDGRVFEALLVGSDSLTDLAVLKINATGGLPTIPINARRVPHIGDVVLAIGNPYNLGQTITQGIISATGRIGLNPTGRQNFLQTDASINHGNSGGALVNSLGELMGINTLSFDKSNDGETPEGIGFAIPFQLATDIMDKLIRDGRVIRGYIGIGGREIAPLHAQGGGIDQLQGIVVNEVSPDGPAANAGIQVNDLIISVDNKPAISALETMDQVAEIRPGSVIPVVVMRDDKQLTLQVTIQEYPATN
Test: fluorescence polarisation
Where no end group is shown, it is not given here. fluorescein = fluorescein-β-alanine label at the N-terminus; βAla = NCCC(=O)O
MEASURED PROPERTY: pKd
Schema: pKd number; meaning minus log10 of the concentration expressed in molar units.

-- ask Would you kindly share the measured pKd for {fluorescein-βAla}-KKDNRDGNYYF [fluorescein-β-alanine-KKDNRDGNYYF OMP peptide] ?
-- reply 5.51
